Origin of the recorded values: patent EP0378255B1

- System: Tryptamine
- measurement notes: Combined Apomorphine, Tryptamine and Norepinephrine (ATN) test in rats: tryptamine part
- Assay type: in vivo
- applied conditions: Rattus norvegicus, hyperaemia, read-out: Combined ATN test in rats ED₅₀ values (TRY) hyperaemia
readout: ED50 (µg/kg)
Numbers only; they are read as µg/kg.

The reported value for Cc1nc2n(C)ccn2c(=O)c1CCN1CCN(c2nsc3ccccc23)CC1 [Compound 124] in terms of ED50 is 1.25

The reported value for Cc1nc2n(C)c(C)cn2c(=O)c1CCN1CCN(c2noc3ccccc23)CC1 [Compound 111] in terms of ED50 is 5

The reported value for Cc1nc2n(c(=O)c1CCN1CCN(c3noc4ccccc34)CC1)CCN2C [Compound 115] in terms of ED50 is 5

The reported value for Cc1nc(NCc2ccccn2)n(C)c(=O)c1CCN1CCC(c2noc3cc(F)ccc23)CC1 [Compound 19] in terms of ED50 is 2.5

The reported value for Cc1nc2n(c(=O)c1CCN1CCC(c3noc4cc(F)ccc34)CC1)CCN2C [Compound 80] in terms of ED50 is 1.25

The reported value for Cc1nc2n(C)nc(C)n2c(=O)c1CCN1CCC(c2noc3cc(F)ccc23)CC1 [Compound 88] in terms of ED50 is 1.25
